Exercise: for every item that follows, state its recorded Modal MIC.
System: S. aureus (MRSA) 1199B
Measurement Protocol: microbe, parasite or virus in culture
Format: cell-based, Staphylococcus aureus
Condition Context: S. aureus (MRSA) 1199B (R); shown in µM
Description: […] The 46 peptides were serially diluted (128 to 2 μg/mL) in media down polypropylene 96-well plates. […] Plates were incubated at 37 °C for 20 h, and the optical density was determined spectrophotometrically at 600 nm. Minimum inhibition concentrations (MICs) were determined from a minimum of three biological repeats and are reported in μg/mL as well as μM. […]
Where a SMILES comes first, the peptide text is derived from it.

Name the reported Modal MIC value associated with the molecule CC[C@H](C)[C@H](NC(=O)[C@@H](N)Cc1c[nH]c2ccccc12)C(=O)N[C@@H](CCCCN)C(=O)N[C@@H](CO)C(=O)N[C@H](C(=O)N[C@@H](C)C(=O)N[C@@H](CCCCN)C(=O)N[C@@H](CCCCN)C(N)=O)[C@@H](C)O [Opis8a] (H-WIKSTAKK-NH2)
> 133.2 µM

// same read-out, input: CC(C)[C@H](NC(=O)CNC(=O)[C@H](CCCNC(=N)N)NC(=O)[C@H](CCCNC(=N)N)NC(=O)[C@H](CS)NC(=O)[C@@H](NC(=O)[C@H](CS)NC(=O)[C@@H](N)CCCNC(=N)N)C(C)C)C(=O)N[C@@H](CS)C(=O)N[C@@H](CCCNC(=N)N)C(=O)N[C@@H](CS)C(=O)N[C@H](C(=O)N[C@@H](CS)C(=O)N[C@@H](CCCNC(=N)N)C(=O)N[C@@H](CCCNC(=N)N)C(N)=O)C(C)C [BTD15a] (H-RCVCRRGVCRCVCRR-NH2; N-terminus assumed)
4.4 µM

// same read-out, input: CC[C@H](C)[C@H](NC(=O)[C@@H](N)CCCCN)C(=O)N[C@@H](C)C(=O)N[C@@H](CCCCN)C(=O)N[C@H](C(=O)N[C@@H](C)C(=O)N[C@@H](CC(C)C)C(=O)N[C@@H](CCCCN)C(=O)N[C@@H](C)C(=O)N[C@@H](CC(C)C)C(N)=O)C(C)C [DRAMP02273a] (H-KIAKVALKAL-NH2)
> 117.5 µM

----------
Exercise: for every item that follows, state its recorded Modal MIC50.
System: C. glabrata NCPF 8018
Measurement Protocol: microbe, parasite or virus in culture
Type: cell-based
Condition Context: C. glabrata NCPF 8018; 50% growth inhibition; RPMI 1640 + 2% glucose, 37 °C, 20 h
Where a SMILES comes first, the peptide text is derived from it.

Name the reported Modal MIC50 value associated with the compound CC[C@H](C)[C@H](N)C(=O)N[C@@H](CC(C)C)C(=O)NCC(=O)N[C@@H](CCCCN)C(=O)N[C@H](C(=O)N[C@@H](Cc1c[nH]c2ccccc12)C(=O)N[C@@H](CCCCN)C(=O)N1CCC[C@H]1C(=O)N[C@H](C(=O)N[C@@H](CCCCN)C(=O)N[C@@H](CCCCN)C(=O)N[C@@H](CC(C)C)C(=O)N[C@@H](Cc1ccccc1)C(N)=O)[C@@H](C)CC)[C@@H](C)CC [K7P8K11-IsCTa] (H-ILGKIWKPIKKLF-NH2)
> 128 µg/mL

// same read-out, input: CC(C)C[C@H](NC(=O)[C@H](CCCCN)NC(=O)[C@H](CO)NC(=O)[C@H](CCCCN)NC(=O)[C@H](Cc1c[nH]c2ccccc12)NC(=O)[C@H](C)NC(=O)[C@H](CCCCN)NC(=O)[C@@H](N)CCCCN)C(=O)N[C@@H](C)C(=O)N[C@@H](CCCCN)C(=O)N[C@@H](CCCCN)C(=O)N[C@@H](CC(C)C)C(=O)N[C@@H](CCCNC(=N)N)C(=O)N[C@@H](C)C(=O)N[C@@H](CCCCN)C(=O)NCC(=O)N[C@@H](CCCCN)C(N)=O [PS-PB-14a] (H-KKAWKSKLAKKLRAKGK-NH2)
> 128 µg/mL

// same read-out, input: CC[C@H](C)[C@H](N)C(=O)N[C@@H](CCCNC(=N)N)C(=O)NCC(=O)N[C@@H](Cc1ccc(O)cc1)C(=O)N[C@@H](CCCCN)C(=O)NCC(=O)NCC(=O)N[C@@H](Cc1ccc(O)cc1)C(=O)N[C@@H](CS)C(=O)N[C@@H](CCCCN)C(N)=O [Os(3-12)a] (H-IRGYKGGYCK-NH2)
> 128 µg/mL

----------
Test system: C. tropicalis NCPF 8760
Measurement Protocol: microbe, parasite or virus in culture
Assay type: cell-based
Condition Context: C. tropicalis NCPF 8760; shown in µM
Where a SMILES comes first, the peptide text is derived from it.
Measured Attribute: Modal MIC50 (µM)
A number alone suffices; assume µM.

Item CC[C@H](C)[C@H](N)C(=O)N[C@@H](CC(C)C)C(=O)NCC(=O)N[C@@H](CCCCN)C(=O)N[C@H](C(=O)N[C@@H](Cc1c[nH]c2ccccc12)C(=O)N[C@@H](CCCCN)C(=O)N1CCC[C@H]1C(=O)N[C@H](C(=O)N[C@@H](CCCCN)C(=O)N[C@@H](CCCCN)C(=O)N[C@@H](CC(C)C)C(=O)N[C@@H](Cc1ccccc1)C(N)=O)[C@@H](C)CC)[C@@H](C)CC [K7P8K11-IsCTa] (H-ILGKIWKPIKKLF-NH2) with C. tropicalis NCPF 8760 - Modal MIC50?
4.9

// same read-out, input: CC[C@H](C)[C@H](NC(=O)[C@H](C)NC(=O)CNC(=O)[C@H](C)NC(=O)[C@H](CCCCN)NC(=O)[C@H](CO)NC(=O)[C@H](C)NC(=O)[C@H](CCSC)NC(=O)CN)C(=O)N[C@@H](C)C(=O)NCC(=O)N[C@@H](CCCCN)C(=O)N[C@H](C(=O)N[C@@H](C)C(=O)N[C@@H](CCCCN)C(=O)N[C@H](C(=O)N[C@@H](C)C(=O)N[C@@H](CC(C)C)C(=O)N[C@@H](CCCCN)C(=O)N[C@@H](C)C(=O)N[C@@H](CC(C)C)C(N)=O)C(C)C)[C@@H](C)CC [DRAMP02272a] (H-GMASKAGAIAGKIAKVALKAL-NH2)
16

// same read-out, input: CC(C)C[C@H](NC(=O)[C@H](CCCCN)NC(=O)[C@H](CO)NC(=O)[C@H](CCCCN)NC(=O)[C@H](Cc1c[nH]c2ccccc12)NC(=O)[C@H](C)NC(=O)[C@H](CCCCN)NC(=O)[C@@H](N)CCCCN)C(=O)N[C@@H](C)C(=O)N[C@@H](CCCCN)C(=O)N[C@@H](CCCCN)C(=O)N[C@@H](CC(C)C)C(=O)N[C@@H](CCCNC(=N)N)C(=O)N[C@@H](C)C(=O)N[C@@H](CCCCN)C(=O)NCC(=O)N[C@@H](CCCCN)C(N)=O [PS-PB-14a] (H-KKAWKSKLAKKLRAKGK-NH2)
31.9

// same read-out, input: CC(C)C[C@H](NC(=O)[C@H](CCCCN)NC(=O)[C@H](CO)NC(=O)[C@H](CCCCN)NC(=O)[C@H](Cc1c[nH]c2ccccc12)NC(=O)[C@H](C)NC(=O)[C@H](CCCCN)NC(=O)[C@H](CCCCN)NC(=O)[C@H](CC(C)C)NC(=O)[C@H](Cc1ccccc1)NC(=O)[C@H](CO)NC(=O)CN)C(=O)N[C@@H](C)C(=O)N[C@@H](CCCCN)C(=O)N[C@@H](CCCCN)C(=O)N[C@@H](CC(C)C)C(=O)N[C@@H](CCCNC(=N)N)C(=O)N[C@@H](C)C(=O)N[C@@H](CCCCN)C(=O)NCC(N)=O [PS-PB-20a] (H-GSFLKKAWKSKLAKKLRAKG-NH2)
27.8

----------
Test system: S. aureus (MRSA) NCTC 13616
Measurement Protocol: microbe, parasite or virus in culture
Assay type: cell-based, Staphylococcus aureus
Condition Context: S. aureus (MRSA) NCTC 13616 (R); shown in µM
Where a SMILES comes first, the peptide text is derived from it.
Exercise: for every item that follows, state its recorded Modal MIC.
A number alone suffices; assume µM.

Name the reported Modal MIC value associated with the compound CC[C@H](C)[C@H](N)C(=O)N[C@@H](CC(C)C)C(=O)NCC(=O)N[C@@H](CCCCN)C(=O)N[C@H](C(=O)N[C@@H](Cc1c[nH]c2ccccc12)C(=O)N[C@@H](CCCCN)C(=O)N1CCC[C@H]1C(=O)N[C@H](C(=O)N[C@@H](CCCCN)C(=O)N[C@@H](CCCCN)C(=O)N[C@@H](CC(C)C)C(=O)N[C@@H](Cc1ccccc1)C(N)=O)[C@@H](C)CC)[C@@H](C)CC [K7P8K11-IsCTa] (H-ILGKIWKPIKKLF-NH2)
39.5

// same read-out, input: CC[C@H](C)[C@H](NC(=O)[C@H](C)NC(=O)[C@H](CCCCN)NC(=O)[C@@H]1CCCN1C(=O)[C@@H](NC(=O)[C@H](CC(C)C)NC(=O)[C@H](CCCCN)NC(=O)[C@H](Cc1ccccc1)NC(=O)[C@H](CC(C)C)NC(=O)[C@@H](N)Cc1ccccc1)[C@@H](C)CC)C(=O)N[C@@H](CCCCN)C(=O)N[C@@H](CCCCN)C(=O)N[C@@H](CC(C)C)C(=O)N[C@H](C(=O)N[C@@H](CO)C(=O)N[C@@H](CCCCN)C(=O)N[C@@H](Cc1ccccc1)C(=O)N[C@@H](CCCCN)C(N)=O)[C@@H](C)CC [AamAP1-Lysa] (H-FLFKLIPKAIKKLISKFK-NH2)
0.9

// same read-out, input: CC[C@H](C)[C@H](N)C(=O)N[C@@H](CC(C)C)C(=O)N[C@@H](CCCCN)C(=O)N[C@@H](CCCCN)C(=O)N[C@H](C(=O)N[C@@H](Cc1c[nH]c2ccccc12)C(=O)N[C@@H](CCC(=O)O)C(=O)NCC(=O)N[C@H](C(=O)N[C@@H](CCCCN)C(=O)N[C@@H](CO)C(=O)N[C@@H](CC(C)C)C(=O)N[C@@H](Cc1ccccc1)C(N)=O)[C@@H](C)CC)[C@@H](C)CC [K3-IsCTa] (H-ILKKIWEGIKSLF-NH2)
5

// same read-out, input: CC[C@H](C)[C@H](NC(=O)[C@H](C)NC(=O)[C@H](CCCCN)NC(=O)[C@@H]1CCCN1C(=O)[C@@H](NC(=O)[C@H](CC(C)C)NC(=O)[C@H](CO)NC(=O)[C@H](Cc1ccccc1)NC(=O)[C@H](CC(C)C)NC(=O)[C@@H](N)Cc1ccccc1)[C@@H](C)CC)C(=O)NCC(=O)NCC(=O)N[C@@H](CC(C)C)C(=O)N[C@H](C(=O)N[C@@H](CO)C(=O)N[C@@H](C)C(=O)N[C@@H](Cc1ccccc1)C(=O)N[C@@H](CCCCN)C(N)=O)[C@@H](C)CC [AamAP-S1a]
4.1
